tested on: SK-MEL-2 melanoma; test: NCI-60 one-dose screen, 48 h (100 = growth as untreated, 0 = no growth, -100 = all killed); details: 10 µM unless noted
The panel holds about 83,000 compounds, 20% with a hit somewhere; the sample as a whole holds those more often. Active and inactive are the calls of the source. The calls were made as follows: active = growth percent below 10; inactive = the rest.
experimental.endpoint: growth

| molecule | reading |
| --- | --- |
| O=S(=O)(O)c1ccc2cc(O)ccc2c1 | 106% (inactive) |
| Cc1c(O)nc(N)[nH]c1=O | 123% (inactive) |
| N#Cc1c(N)nc2c(c(-c3ccc(Cl)cc3)nn2-c2ccccc2)c1C#N | 122% [100 µM] (inactive) |
| CCCC(=O)Oc1ccc2ccccc2c1 | 104% (inactive) |
| Nc1ccc2ccc(NS(=O)(=O)N3CCCCC3)cc2c1 | 85.4% (inactive) |
| O=C(NC(=O)c1ccc(F)c(Cl)c1)NC1CC1 | 107% (inactive) |
| O=C1C=CC(n2cc(F)c(=O)[nH]c2=O)O1 (configuration not stated) | 109% (inactive) |

* * *

Tested on: HOP-92 NSCLC
Experiment: NCI-60 one-dose screen, 48 h (100 = growth as untreated, 0 = no growth, -100 = all killed)
Conditions: 10 µM unless noted
Description: Growth inhibition of the HOP-92 human Non-Small Cell Lung tumor cell line is measured as a screen for anti-cancer activity. Cells are grown in 96 well plates and exposed to the test compound for 48 hours. Compounds are tested at a single concentration, which is 10^-5 M for most compounds. The reported endpoint is percent growth (GI% or GIPRCNT), where numbers from 0 - 100% represent growth inhibition, and numbers from -100% - 0 represent cell death. […]
This is part of a sample that, as a whole, favours compounds with a hit. Of some 83,000 tested, about 20% had one in any assay. The source made the active and inactive calls. Rule for the calls: active = growth percent below 10; inactive = the rest.
experimental.endpoint: growth

| compound | reading |
| --- | --- |
| Cc1nc(Nc2ccc(Cl)cc2)c2cnn(-c3ccccc3)c2n1 | 95.4% (inactive) |
| CCCCCCCCCCCCCCCCC(=O)O | 110% (inactive) |
| CCOC(=N)c1ccc(C(=N)OCC)cc1 | 93% (inactive) |
| CN(C=O)c1ccccc1 | 84.2% (inactive) |
| O=[N+]([O-])c1ccc(N/N=C/C2CCCCCC2)c([N+](=O)[O-])c1 | 82.6% (inactive) |
| COC(=O)C(Cc1cn(C(C)=O)c2ccccc12)P(=O)(OC)OC (configuration not stated) | 98.8% (inactive) |
| Cc1ccc(NC(=S)N/C=C(\c2ccccc2)S(=O)Cc2ccccc2)c(C)c1 (configuration not stated) | 80.1% (inactive) |
| Nc1nc(-c2ccccn2)cc(-c2cc(-c3ccccn3)nc(N)n2)n1 | 103% (inactive) |
| CCC(C)NC(=O)c1ccccc1C (configuration not stated) | 84.5% (inactive) |
| O=C(N=C1C(=O)C2(CCCCC2)C2(N=C(c3ccccc3)OC2=O)C12CCCCC2)c1ccccc1 (configuration not stated) | 41.7% (inactive) |
| N#Cc1c(N)nc2c(c(-c3ccc(Cl)cc3)nn2-c2ccccc2)c1C#N | 90.8% [100 µM] (inactive) |
| Nc1ccccc1SC(CC(=O)c1ccccc1)c1cccc([N+](=O)[O-])c1 (configuration not stated) | 95.9% (inactive) |

* * *

tested on: ACHN renal; test: NCI-60 one-dose screen, 48 h; conditions: 10 µM unless noted
About 83,000 compounds went through this panel and 20% of them were active in at least one assay; those are over-represented in the sample as a whole. The source made the active and inactive calls. Rule for the calls: active = growth percent below 10; inactive = the rest.
Labels: active, inactive

| molecule | group.label |
| --- | --- |
| O=C1C2=C(Nc3cc(Cl)ccc3N2)OC1c1c[nH]c2ccc(COc3ccccc3)cc12 (stereo not given) | inactive |
| O=C(O)COc1ccccc1F | inactive |
| O=C(c1ccc(Cl)cc1)C1C(c2ccccc2)C1[N+](=O)[O-] (stereo not given) | inactive |
| CC1CC(O)CC(C)(C)C1.CC1CC(O)CC(C)(C)C1.CC1CC(O)CC(C)(C)C1.CC1CC(O)CC(C)(C)C1.[Ti] (stereo not given) | inactive |
| Cc1ccc(S(=O)(=O)n2ccnc2)cc1 | inactive |
| COC(=O)c1nc(N)nc(C(=O)OC)c1C(=O)c1ccc(F)cc1 | inactive |
| CN1C2C=CC(=O)C1C1C(=O)N(c3ccccc3)C(=O)C12 (stereo not given) | inactive |
| COc1ccc(CCl)c(C)c1OC | inactive |
| O=C(/C=C/C=C/c1ccc2c(c1)OCO2)N1CCCCC1 | inactive |
| O=[N+]([O-])c1ccc(NC(c2ccccc2)c2ccc3cccnc3c2O)cc1 (stereo not given) | inactive |
| COc1ccc(/C=N/NC(N)=S)cc1 | inactive |
| Nc1c(Cl)cc2c(c1Br)C(=O)c1ccccc1C2=O | inactive |
| CC(=O)/C(N=Nc1ccc(S(=O)(=O)c2ccc(N=N/C(C(C)=O)=C(/C)O)cc2)cc1)=C(\C)O | inactive |
| CS(=O)(=O)c1nsc(N)n1 | inactive |
| CCOC(C)=N | inactive |
| CCNC1=CC(=O)c2ncccc2C1=O | inactive |
| Cc1cc2ccccc2c2cc3ccccc3cc12 | inactive |
| C/C(CC(C)C)=N/NC(N)=S | inactive |
| N#Cc1c(N)nc2c(c(-c3ccc(Cl)cc3)nn2-c2ccccc2)c1C#N | inactive |
| NCCCCCC(=O)O | inactive |
| OCc1ccccc1F | active |
| CCCCCCC(C)CC1=C(O)c2ccccc2C(=O)C1=O (stereo not given) | inactive |
| CCCC(=O)OCC(COC(=O)CCC)OC(=O)CCC | inactive |
| Cc1ccc(NC(=S)N/C=C(\c2ccccc2)S(=O)Cc2ccccc2)c(C)c1 (stereo not given) | inactive |
| COC(=O)c1nc(N)nc(C(=O)OC)c1C(=O)c1cccc2ccccc12 | inactive |

* * *

test system: SK-MEL-28 melanoma; assay: NCI-60 one-dose screen, 48 h (100 = growth as untreated, 0 = no growth, -100 = all killed); conditions: 10 µM unless noted
This is part of a sample that, as a whole, favours compounds with a hit. Of some 83,000 tested, about 20% had one in any assay.
experimental.endpoint: growth (%)

| molecule | assay.target | reading |
| --- | --- | --- |
| COc1ccc(CCNC(=S)NN)cc1OC | SK-MEL-28 melanoma | 114 |
| COc1cc(Cl)ccc1C | SK-MEL-28 melanoma | 112 |
| CCOC(C)=N | SK-MEL-28 melanoma | 112 |
| Cc1cc(Cl)nc(Nc2ccccc2)n1 | SK-MEL-28 melanoma | 109 |
| COC(=O)c1nc(=S)[nH]c(C(=O)OC)c1C(=O)c1ccccc1 | SK-MEL-28 melanoma | 105 |
| COc1ccc(/C=N/NC(N)=S)cc1 | SK-MEL-28 melanoma | 112 |
| CCC(C)(O)CCC(C)(O)CC (configuration not stated) | SK-MEL-28 melanoma | 124 |

* * *

tested on: MCF7 breast; experiment: NCI-60 one-dose screen, 48 h (100 = growth as untreated, 0 = no growth, -100 = all killed); settings: 10 µM unless noted
Compounds without any hit were thinned out: in the full panel of roughly 83,000, 20% have a hit.

| molecule | unit.spec | growth |
| --- | --- | --- |
| O=C(O)Cc1cc(=O)[nH]n(-c2ccccc2)c1=O | % | 98.9 |
| CC(O)CCNC(c1ccccc1)C(O)c1ccccc1 (stereo not drawn) | % | 99.9 |
| O=C(O)C#Cc1ccc(Cl)cc1 | % | 98.8 |
| C/C(=C\c1ccccc1)C(O)C(=O)c1nc2ccc([N+](=O)[O-])cc2[nH]c1=O (stereo not drawn) | % | 79.3 |
| Cc1c(O)nc(N)[nH]c1=O | % | 99 |
| CCN(CC)C(CC(=O)c1ccccc1)C(=O)c1ccccc1 (stereo not drawn) | % | 53.2 |
| O=C(c1ccccc1)C1(Br)CCCCC1 | % | 96 |
| CCOP(=O)(OCC)/C(C#N)=C/c1c(C)[nH]c2ccccc12 | % | 96.2 |

* * *

// growth lookup, one value per entry
test system: SR leukemia; experiment: NCI-60 one-dose screen, 48 h (100 = growth as untreated, 0 = no growth, -100 = all killed); settings: 10 µM unless noted
This is part of a sample that, as a whole, favours compounds with a hit. Of some 83,000 tested, about 20% had one in any assay. The source made the active and inactive calls. How the source made its calls: active means growth percent below 10; inactive means the rest.

| molecule | growth |
| --- | --- |
| NNC(=O)Nc1ccccc1 | 96.5% (inactive) |
| Clc1ccc2c(c1)N(C1CCCN(Cc3ccccc3)C1)c1ccccc1S2 (configuration not stated) | 16.1% (inactive) |
| O=C(O)Cc1cc(=O)[nH]n(-c2ccccc2)c1=O | 88.9% (inactive) |
| N#Cc1c(N)nc2c(c(-c3ccc(Cl)cc3)nn2-c2ccccc2)c1C#N | 104% [100 µM] (inactive) |
| CC1=CC(=O)c2cccc(NC3=NCCO3)c21 | 91.6% (inactive) |
| S=c1nn[nH]n1C1CCCCC1 | 101% (inactive) |
| COc1ccc(/C=N/Nc2nc3ccccc3s2)cc1 | 87.9% (inactive) |
| COC(=O)c1nc(=S)[nH]c(C(=O)OC)c1C(=O)c1ccc(OC)cc1 | 105% (inactive) |
| CC(=O)Nc1cscc1NC(C)=O | 90.1% (inactive) |
| CS/C(=C\c1ccc(C(=O)c2ccc(C)cc2)n1C)S(C)=O (configuration not stated) | 30.9% [100 µM] (inactive) |
| CC(C)(C)OC(=O)NCCc1ccc(N)cc1 | 99.5% (inactive) |
| Cc1ccc([N+](=O)[O-])cc1Br | 83% (inactive) |
| O=[N+]([O-])c1ccc(N2CCN=N2)cc1 | 78.6% (inactive) |
| COc1ccc(CCO)cc1 | 75.6% (inactive) |
| COc1ccc(CCN=Cc2ccc(Cl)cc2)cc1OC | 98.5% (inactive) |
| COc1ccc2nccc(Cl)c2c1 | 101% (inactive) |
| CC(=O)Oc1cc(C(C)C)c(OCCN(C)C)cc1C | 107% (inactive) |
| Cc1onc(-c2c(F)cccc2Cl)c1-c1ncc(-c2ccc(Cl)cc2)o1 | 11% (inactive) |
| CCC(C)(O)CCC(C)(O)CC (configuration not stated) | 97.4% (inactive) |
| Nc1ccc(O)c(C(=O)O)c1 | 99.8% (inactive) |
| C#CCOC(=O)C(N)CS (configuration not stated) | 102% (inactive) |
| CCCCOC1NC(=O)NC(=O)C1(F)C(=O)OCC (configuration not stated) | 37.9% (inactive) |
| Cc1c(O)nc(N)[nH]c1=O | 125% (inactive) |
| CCOP(=O)(OCC)/C(C#N)=C/c1c(C)[nH]c2ccccc12 | 94.8% (inactive) |
| CS(=O)(=O)c1nsc(N)n1 | 98.8% (inactive) |
| CCc1ccccc1-n1[nH]c(C)c(C=N)c1=O | 94.8% (inactive) |
| COc1cc(C2c3cc4c(cc3C(OC(=O)C[n+]3ccccc3)C3COC(=O)C23)OCO4)cc(OC)c1OC (configuration not stated) | 11.5% (inactive) |
